PBM binding z-score by entry:
Test system: RXRa DBDmut IVT, anti-RXR (DBD mutation: RXRa K156A/R161A, NR concentration 90 nM)
Assay: PBM binding z-score (relative to random genomic background probes); higher = stronger binding; sequences stand for … in GC…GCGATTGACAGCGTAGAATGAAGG
I only need the number, thanks.

The cases that follow already have their PBM binding z-score on record.
[[record]]
entry_sequence = "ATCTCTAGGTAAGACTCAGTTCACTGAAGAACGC"
value_measured = 0.822

[[record]]
entry_sequence = "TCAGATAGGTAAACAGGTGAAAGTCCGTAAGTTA"
value_measured = 1.48

[[record]]
entry_sequence = "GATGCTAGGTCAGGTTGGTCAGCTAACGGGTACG"
value_measured = 0.468

[[record]]
entry_sequence = "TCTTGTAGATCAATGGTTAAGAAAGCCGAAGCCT"
value_measured = 0.768

[[record]]
entry_sequence = "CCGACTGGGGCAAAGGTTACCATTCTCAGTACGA"
value_measured = 0.683


Could you now consider this next sequence?
Per the records, this sequence ( CGTCCAAGGTCATAGTAGGTCAGTGAAGACAGAT ) has PBM binding z-score equal to 4.14
